# target-desc: undecaprenyl diphosphate synthase derived from Staphylococcus aureus (Staphylococcus aureus, UniProt P60477)
# Construct: made in house; host or cells: E. coli BL21 (DE3), T7 promoter, IPTG induction; unpurified cell-free extract (100,000 x g supernatant)
# Sequence (P60477 whole entry): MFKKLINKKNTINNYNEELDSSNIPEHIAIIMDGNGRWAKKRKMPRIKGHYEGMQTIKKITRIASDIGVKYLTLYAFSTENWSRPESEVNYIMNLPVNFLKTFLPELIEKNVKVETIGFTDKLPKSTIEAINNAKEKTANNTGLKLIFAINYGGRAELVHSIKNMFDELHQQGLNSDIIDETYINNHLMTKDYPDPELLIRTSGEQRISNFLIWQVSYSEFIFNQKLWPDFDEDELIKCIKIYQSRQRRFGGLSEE
# measurement-notes: Inhibitory effect on undecaprenyl diphosphate synthase (phosphate release, Amplex Red fluorescence)
# Type: biochemical
reported-property: IC50
Don't forget the unit after the value.

State the recorded IC50 for this entry: COc1cc(O)c2c(O)c3c(c4c2c1C1(C4)C(C)=CCCC1(C)C)C(O)C1(O)CC(O)=C(C(C)=O)C(=O)C1(O)C3=O (stereo not shown)
10 µM

Cited source: patent US20100291622A1
